Reference for the values: paper PMC12102759

Molecular target: T1, talin‐1 PTB domain (309–401), tag cleaved, for FP (human, UniProt Q9Y490 309-401)
T1 construct: also called TLN1 PTB; source: E. coli BL21 (DE3), purified (Ni Sepharose, HRV 3C cleavage)
T1 sequence (Q9Y490 309-401): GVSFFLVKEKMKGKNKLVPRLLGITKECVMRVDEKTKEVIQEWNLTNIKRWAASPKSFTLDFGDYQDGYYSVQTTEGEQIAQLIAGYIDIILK
Experiment: fluorescence polarisation; human domains; saturation with FITC-labelled probe peptide or displacement by unlabelled peptide; 50 mM KPO4 pH 7.5, DTT; triplicates; the text does not tell which of the two gave each KD
Details: both partners purified
pKd: −log10 of the molar value.
Classify as follows. Reported pKd greater than or equal to 5: MET. Reported pKd below: NOT MET.

INSERT INTO measurements (binder, classname) VALUES
  ('LADLIFTDSKLYAPLE (source: synthetic peptide (GeneCust)) [TPTE2 I104A peptide]', 'NOT MET'),
  ('LADLIYTDSKLYIPLE (source: synthetic peptide (GeneCust)) [TPTE2_(92‐107) F97Y peptide]', 'NOT MET'),
  ('LADLIWTDSKLYIPLE (source: synthetic peptide (GeneCust)) [TPTE2_(92‐107) F97W peptide]', 'MET'),
  ('LADLIFTDNKLYIPLE (source: synthetic peptide (GeneCust)) [TPTE2_(92‐107) S100N peptide]', 'MET'),
  ('LADLIFTDSKLWIPLE (source: synthetic peptide (GeneCust)) [TPTE2 Y103W peptide]', 'NOT MET'),
  ('LADLIFTDSKLYIPLE (source: synthetic peptide (GeneCust)) [wild‐type TPTE2_(92‐107) peptide]', 'MET');
